B1: Azoarcus group I ribozyme (parent)
chain: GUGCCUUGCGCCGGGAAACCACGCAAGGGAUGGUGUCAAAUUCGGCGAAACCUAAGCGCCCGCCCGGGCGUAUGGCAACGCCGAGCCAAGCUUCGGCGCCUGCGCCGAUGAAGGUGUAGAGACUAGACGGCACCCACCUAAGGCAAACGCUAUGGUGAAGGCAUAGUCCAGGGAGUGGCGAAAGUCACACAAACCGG

Variants of: B1
method-notes: reverse-splicing fitness (ratio to wild type); higher = more active; in vitro selection; Mg2+ level not given
# if value of reverse-splicing fitness reaches 0.008, tag satisfied; if it stays below, tag not satisfied

[
  {
    "mutation-annotation": "C82G A111C A120C C169A U176A",
    "category": "satisfied"
  },
  {
    "mutation-annotation": "C82A A111U A145U C169A",
    "category": "satisfied"
  },
  {
    "mutation-annotation": "C82U A111G A120G A145C C150U C169G U176C",
    "category": "satisfied"
  },
  {
    "mutation-annotation": "C82U A120C A145C C150G C169U U176C",
    "category": "satisfied"
  },
  {
    "mutation-annotation": "C82U A111C A120C A145U C150G C169A U176C",
    "category": "satisfied"
  },
  {
    "mutation-annotation": "C82U A111C A120U C150U C169U U176A",
    "category": "not satisfied"
  },
  {
    "mutation-annotation": "A111G A145U U176G",
    "category": "satisfied"
  },
  {
    "mutation-annotation": "C82G A145C C150G C169G U176C",
    "category": "not satisfied"
  },
  {
    "mutation-annotation": "C82G A120U C150U U176C",
    "category": "satisfied"
  },
  {
    "mutation-annotation": "A111G A120U A145U C150A C169U U176C",
    "category": "not satisfied"
  },
  {
    "mutation-annotation": "C82A A111C A120C C150U C169G",
    "category": "satisfied"
  },
  {
    "mutation-annotation": "C82A A111G A120C A145G C150A C169A",
    "category": "satisfied"
  },
  {
    "mutation-annotation": "C82U A111G A120G A145G C150U C169A",
    "category": "satisfied"
  },
  {
    "mutation-annotation": "C82G A111G A145C C150U C169U U176A",
    "category": "satisfied"
  },
  {
    "mutation-annotation": "C82U A111U A120C A145G C150G C169G",
    "category": "not satisfied"
  },
  {
    "mutation-annotation": "C82U A111U A120U A145U C150U C169G U176G",
    "category": "not satisfied"
  },
  {
    "mutation-annotation": "C82G A111U A120U A145C C150A C169A U176G",
    "category": "not satisfied"
  },
  {
    "mutation-annotation": "A111C A120G A145C C169U",
    "category": "satisfied"
  },
  {
    "mutation-annotation": "C82U A145G C150U C169U",
    "category": "satisfied"
  },
  {
    "mutation-annotation": "A111G C150G U176G",
    "category": "satisfied"
  },
  {
    "mutation-annotation": "A111C A120G C150A C169G U176C",
    "category": "satisfied"
  },
  {
    "mutation-annotation": "C82A A111G A145U C150A C169A",
    "category": "satisfied"
  }
]
